Target: LAL (Homo sapiens, UniProt P38571)
Sequence (P38571 77-399): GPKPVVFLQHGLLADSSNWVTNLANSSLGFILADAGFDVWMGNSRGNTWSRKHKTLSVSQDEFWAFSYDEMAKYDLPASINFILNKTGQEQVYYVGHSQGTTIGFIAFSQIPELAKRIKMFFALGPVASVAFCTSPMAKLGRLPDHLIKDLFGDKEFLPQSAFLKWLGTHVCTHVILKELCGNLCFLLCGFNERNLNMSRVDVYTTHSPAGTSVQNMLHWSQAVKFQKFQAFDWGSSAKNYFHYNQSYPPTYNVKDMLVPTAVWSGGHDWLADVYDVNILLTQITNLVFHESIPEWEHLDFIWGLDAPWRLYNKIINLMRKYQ
Assay: LAL activity in lysates of compound-treated cells
Type: cell-based
Conditions: ~3 days treatment, ~1 day recovery in growth medium; Figure 4B
READOUT_KIND: inhibition of LAL in cell lysates after withdrawal

MOLECULE | RESULT
O=C(Oc1nsnc1N1CCCCC1)N1CCCCC1 [Compound 12] | maximal potency
O=C(Oc1nsnc1N1CCCC1)N1CCCCC1 [Compound 10] | maximal potency
O=C(Oc1nsnc1N1CCCCCC1)N1CCCCC1 [Compound 16] | maximal potency
